Hello, the source for this data is the supplement of paper PMC9732359, in case you need it.

Here the recorded protein stability index is given for each entry.
# TEST_METHOD_NOTES: protein stability index of a GFP-peptide fusion (yeast GPS) (PSI 1-4); higher = more stable; sorted into four equal gates, so the index is relative within each strain
# CONDITION_PARAMETERS: doa10∆
PROPERTY_MEASURED: protein stability index

{"CONSTRUCT_SEQUENCE": "NAVTAAAANNNIKPVEQ [GAL11]", "MEASURED_NUMBER": 2.66}
{"CONSTRUCT_SEQUENCE": "QFNEFIQIMANIDQEGS [PGD1]", "MEASURED_NUMBER": 2.29}
{"CONSTRUCT_SEQUENCE": "ARYNWICNPVHKHREAR [RPL15B]", "MEASURED_NUMBER": 2.94}
{"CONSTRUCT_SEQUENCE": "ENAYKSENAPSASSKEF [YAR002W/NUP60]", "MEASURED_NUMBER": 2.18}
{"CONSTRUCT_SEQUENCE": "SPPPQTHQSPPPPPQQS [SNF5]", "MEASURED_NUMBER": 2.87}
{"CONSTRUCT_SEQUENCE": "FANYKLLLKKIIKDYVL [SRB4]", "MEASURED_NUMBER": 2.41}
{"CONSTRUCT_SEQUENCE": "YQWRDLIARRDDESPRF [RRP6]", "MEASURED_NUMBER": 3.23}
{"CONSTRUCT_SEQUENCE": "PEESKPINLQNGEEDEV [YLR335W/NUP2]", "MEASURED_NUMBER": 2.9}
{"CONSTRUCT_SEQUENCE": "SGDESNVISSKDWELEA [YDL116W/NUP84]", "MEASURED_NUMBER": 3.45}
{"CONSTRUCT_SEQUENCE": "VDAYRRLENKLSEIESL [SRP68]", "MEASURED_NUMBER": 1.4}
{"CONSTRUCT_SEQUENCE": "GTFKSTLDREYITLKAT [QCR2]", "MEASURED_NUMBER": 1.39}
{"CONSTRUCT_SEQUENCE": "FFTNPNKKRPSSKKVFS [YOR098C/NUP1]", "MEASURED_NUMBER": 2.85}
{"CONSTRUCT_SEQUENCE": "MKPKAEKESDDGLLEYL [SMC4]", "MEASURED_NUMBER": 3.58}
{"CONSTRUCT_SEQUENCE": "FTLWWSPTINRANVYVG [PRP8]", "MEASURED_NUMBER": 1.99}
{"CONSTRUCT_SEQUENCE": "KGGSLYGLGLIYAGFGR [RPN2]", "MEASURED_NUMBER": 2.15}
{"CONSTRUCT_SEQUENCE": "ALQNLSQLPITPMTRIS [YGL172W/NUP49]", "MEASURED_NUMBER": 2.31}
{"CONSTRUCT_SEQUENCE": "NVEPTENAYKSENAPSA [YAR002W/NUP60]", "MEASURED_NUMBER": 2.81}
{"CONSTRUCT_SEQUENCE": "APPLENENSNCLLSIPK [YML103C/NUP188]", "MEASURED_NUMBER": 1.86}
{"CONSTRUCT_SEQUENCE": "DIYFKLKKLEKEYELLT [RPT3]", "MEASURED_NUMBER": 2.74}
{"CONSTRUCT_SEQUENCE": "PLGILHIPICVTFSFFN [RRP45]", "MEASURED_NUMBER": 1.29}
{"CONSTRUCT_SEQUENCE": "GSEEKAFVPKKRKTNII [SRP54]", "MEASURED_NUMBER": 3.12}
{"CONSTRUCT_SEQUENCE": "YSTCPSETDLNDIPLGS [SRB8]", "MEASURED_NUMBER": 2.52}
{"CONSTRUCT_SEQUENCE": "LSTSEDVSIEELLREWL [IRR1]", "MEASURED_NUMBER": 3.25}
{"CONSTRUCT_SEQUENCE": "TEQTKSKNPLSLTEATK [YLR335W/NUP2]", "MEASURED_NUMBER": 3.08}
{"CONSTRUCT_SEQUENCE": "IPFQTLYRSIESGEFDF [YJL039C/NUP192]", "MEASURED_NUMBER": 1.95}
{"CONSTRUCT_SEQUENCE": "CSPWSLQISDIPAAGNN [SRB5]", "MEASURED_NUMBER": 2.07}
{"CONSTRUCT_SEQUENCE": "DPQHKAIRRDARYNWIC [RPL15A]", "MEASURED_NUMBER": 2.86}
{"CONSTRUCT_SEQUENCE": "QKNMNDLLRSQLTSLEK [YIL149C/MLP2]", "MEASURED_NUMBER": 2.89}
{"CONSTRUCT_SEQUENCE": "SVRIDGRKVLQKVQGES [SIR4]", "MEASURED_NUMBER": 2.75}
